Below, each of the compounds is paired with its reported Cell Viability (%) 48 h Dosing value.
tested on: A549 cells; assay: MTT cytotoxicity assay; format: cell-based, human; conditions: normalized to naïve control, ± SEM
Phrase the answer as number then unit, nothing more needed.

See these solved cases before continuing.
NCCCNC(=O)[C@H](Cc1ccccc1)NC(=O)C1CCCCC1 [Cyc-Phe-DAP]    60.4 ± 2.6%
NCCCNC(=O)[C@H](Cc1ccccc1)NC(=O)OCc1ccccc1 [Cbz-Phe-DAP]    53.7 ± 3.0%
NCCCNC(=O)[C@H](Cc1cccc(F)c1)NC(=O)OCC1c2ccccc2-c2ccccc21 [Fmoc-3F-Phe-DAP]    42.0 ± 2.4%
CCCCCCC(=O)N[C@@H](Cc1ccccc1)C(=O)NCCCN [Hex-Phe-DAP]    52.1 ± 4.5%

Inquiry: Suppose we examine the compound NCCCNC(=O)[C@H](Cc1ccccc1)NC(=O)Cc1ccc2ccccc2c1 [2-Nap-Phe-DAP] ; what Cell Viability (%) 48 h Dosing value has been reported?
Reply text: 44.3 ± 8.7%

Inquiry: Suppose we examine the compound NCCCNC(=O)[C@H](Cc1ccccc1)NC(=O)CC1c2ccccc2-c2ccccc21 [Fm-Phe-DAP] ; what Cell Viability (%) 48 h Dosing value has been reported?
Reply text: 26.7 ± 4.0%

Inquiry: Suppose we examine the compound NCCCNC(=O)[C@H](Cc1ccccc1)NC(=O)OCC1c2ccccc2-c2ccccc21 [Fmoc-Phe-DAP] ; what Cell Viability (%) 48 h Dosing value has been reported?
Reply text: 63.7 ± 5.1%

Inquiry: Suppose we examine the compound NCCCNC(=O)[C@H](Cc1ccccc1)NC(=O)Cc1cccc2ccccc12 [1-Nap-Phe-DAP] ; what Cell Viability (%) 48 h Dosing value has been reported?
Reply text: 45.1 ± 3.1%

---

tested on: thyroid transcription factor-1 (TTF-1) mRNA expression in A549 lung carcinoma cells; experiment: TTF-1 knockdown determination by RT-qPCR; assay type: cell-based, human; parameters: concentration or dose not given beside the values; conditions: A549 cells; TTF-1 siRNA; normalized to GAPDH
EXPERIMENTAL READOUT: knockdown (reduction) of TTF-1 mRNA

NCCCNC(=O)[C@H](Cc1ccccc1)NC(=O)CC1c2ccccc2-c2ccccc21 [Fm-Phe-DAP]    ~62%
NCCCNC(=O)[C@H](Cc1ccccc1)NC(=O)OCc1ccccc1 [Cbz-Phe-DAP]    approximately 70%
NCCCNC(=O)[C@H](Cc1ccccc1)NC(=O)CCCc1ccc2ccc3cccc4ccc1c2c34 [Pyr-Phe-DAP]    approximately 70%
NCCCNC(=O)[C@H](Cc1ccccc1)NC(=O)OCC1c2ccccc2-c2ccccc21 [Fmoc-Phe-DAP]    83%

Inquiry: Suppose we examine the compound NCCCNC(=O)[C@H](Cc1c(F)c(F)c(F)c(F)c1F)NC(=O)OCC1c2ccccc2-c2ccccc21 [Fmoc-F5-Phe-DAP] ; what knockdown (reduction) of TTF-1 mRNA value has been reported?
Reply text: ~61%

Inquiry: Suppose we examine the compound NCCCNC(=O)[C@H](Cc1ccccc1)NC(=O)Cc1ccc2ccccc2c1 [2-Nap-Phe-DAP] ; what knockdown (reduction) of TTF-1 mRNA value has been reported?
Reply text: 87%

Inquiry: Suppose we examine the compound NCCCNC(=O)[C@H](Cc1ccccc1)NC(=O)Cc1cccc2ccccc12 [1-Nap-Phe-DAP] ; what knockdown (reduction) of TTF-1 mRNA value has been reported?
Reply text: 86%

Inquiry: Suppose we examine the compound NCCCNC(=O)[C@H](Cc1cccc(F)c1)NC(=O)OCC1c2ccccc2-c2ccccc21 [Fmoc-3F-Phe-DAP] ; what knockdown (reduction) of TTF-1 mRNA value has been reported?
Reply text: ~48%
